Measured pKd by item
Target Or Test System: T1, hIL-4Rα.ECD (human, UniProt P24394 26-232)
T1 construct: extracellular domain; also called hIL-4Rα protein
Test Details: SPR, antibody captured by anti-human Fc on CM5, hIL-4Rα.ECD analyte
Reminder that pKd is minus the log10 of a molar concentration.

Examples with answers:
>>> recorded_number("m8 (antibody, human IgG4 S228P, kappa, V domains shown, also called m8 molecule; anti-IL-4R antibody m8) VH: QVQLVQSGAEVKKPGASVKVSCKASGYTFTTYYIYWVRQAPGQGLEWMGGSNPSTGGTLDNEKFKTRVTMTVDKSTSTAYMELSSLRSEDTAVYYCTRSGRYAPFTYWGQGTLVTVSS VL: DIQMTQSPSSLSASVGDRVTITCKASQDVSTSVAWYQQKPGKAPKLLIYSASYRFTGVPSRFSGSGSGTDFTFTISSLQPEDFATYYCQHYSTTPFTFGQGTKLEIKR")
10.36
>>> recorded_number("Dupilumab (antibody, V domains shown) VH: EVQLVESGGGLEQPGGSLRLSCAGSGFTFRDYAMTWVRQAPGKGLEWVSSISGSGGNTYYADSVKGRFTISRDNSKNTLYLQMNSLRAEDTAVYYCAKDRLSITIRPRYYGLDVWGQGTTVTVSS VL: DIVMTQSPLSLPVTPGEPASISCRSSQSLLYSIGYNYLDWYLQKSGQSPQLLIYLGSNRASGVPDRFSGSGSGTDFTLKISRVEAEDVGFYYCMQALQTPYTFGQGTKLEIKR")
10.42

*Q* Dear colleague, I am looking for the recorded pKd of the following binder: m21 (antibody, V domains shown, captured by anti-human Fc); also called m21 molecule) VH: QVQLVQSGAEVKKPGASVKVSCKASGYTFTTYYIYWVRQAPGQGLEWMGGSNPSTGGTLENEKFKTRVTMTVDKSTSTAYMELSSLRSEDTAVYYCTRSGRYAPFTYWGQGTLVTVSS VL: DIQMTQSPSSLSASVGDRVTITCKASQDVSTSVAWYQQKPGKAPKLLIYSASYRFTGVPSRFSGSGSGTDFTFTISSLQPEDFATYYCVHYSTTPFTFGQGTKLEIK
*A* 9.88

*Q* For the binder shown here, m27 (antibody, V domains shown, captured by anti-human Fc); also called m27 molecule) VH: QVQLVQSGAEVKKPGASVKVSCKASGYTFTTYYIYWVRQAPGQGLEWMGGSNPSTGGTLENEKFKTRVTMTVDKSTSTAYMELSSLRSEDTAVYYCTRSGRYATFTYWGQGTLVTVSS VL: DIQMTQSPSSLSASVGDRVTITCKASQDVSTSVAWYQQKPGKAPKLLIYSASYRFTGVPSRFSGSGSGTDFTFTISSLQPEDFATYYCVHYSTTPFTFGQGTKLEIK , give the reported pKd.
*A* 9.71

Reference source for all entries: patent EP4814012A1
